# Target system: T1, CGH-1_(248–420) Y386A (C. elegans, UniProt Q95YF3 248-420, Y386A)
# T1 construct: Mutant of m1 made with the MutanBEST kit; source: E. coli Gold (DE3), purified (Ni-chelating resin, SEC Superdex 75)
# T1 sequence (looked up): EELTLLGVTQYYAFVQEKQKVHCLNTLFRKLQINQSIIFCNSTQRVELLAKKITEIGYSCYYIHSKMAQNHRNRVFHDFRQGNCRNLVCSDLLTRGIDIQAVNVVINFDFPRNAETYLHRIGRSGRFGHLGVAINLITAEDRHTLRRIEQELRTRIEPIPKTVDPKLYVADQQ
# Assay info: ITC; ligand (peptide or CAR-1 fragment, 0.5 mM) injected into CGH-1_(248-420) or mutant (0.05 mM) in the cell; 20 °C; Buffer B (20 mM Tris-HCl pH 7.5, 150 mM NaCl); one-binding-site model
# Details: both partners purified
Measured endpoint: pKd
Scale: negative log10 of molar concentration, which is what pKd denotes.

Please fill in: pKd reported for SDEDHNIFDDEFDAANDETFGGGLDNIGENAELENYAT (PATR-1 (Pat1 ortholog), C. elegans, residues 30-67; Printed with free NH2 and COOH ends; also called PATR1_30-67^WT; CePATR-1 peptide; source: synthetic peptide (GL Biochem, Shanghai)) [PATR-1 peptide (CePATR-1_(30–67))] = 5.38

Values from paper PMC8514580
